Tested on: Staphylococcus aureus
Test: Antibacterial activity against Staphylococcus aureus ATCC 10537 after 16 hrs at 36 degC by microdilution method
Type: functional
Details: ATCC 10537, 16 h
Decision: MIC beneath 20 µg/mL gives Condition met; MIC meeting or exceeding 20 µg/mL gives Condition not met.

Example results:
- molecule: "CN(C)C(CNCc1ccc(Cl)c(Cl)c1)CNc1cc(=O)c2ccccc2[nH]1 (centres undefined)"
  system: "Staphylococcus aureus"
  cat: "Condition not met"
- molecule: "CC(C)OC(CNCc1ccc(Cl)c(Cl)c1)CNc1cc(=O)c2ccccc2[nH]1 (centres undefined)"
  system: "Staphylococcus aureus"
  cat: "Condition met"
- molecule: "NC(CNCc1ccc(Cl)c(Cl)c1)CNc1cc(=O)c2ccccc2[nH]1 (centres undefined)"
  system: "Staphylococcus aureus"
  cat: "Condition not met"
- molecule: "CC(C)(C)OC(=O)NC(CNCc1ccc(Cl)c(Cl)c1)CNc1cc(=O)c2ccccc2[nH]1 (centres undefined)"
  system: "Staphylococcus aureus"
  cat: "Condition not met"

API: query returns whether the molecule falls strictly under 20 µg/mL in MIC. Query: C=CCOC(CNCc1ccc(Cl)c(Cl)c1)CNc1cc(=O)c2ccccc2[nH]1 (centres undefined)
Condition met

API: query returns whether the molecule falls strictly under 20 µg/mL in MIC. Query: COCC(CNCc1ccc(Cl)c(Cl)c1)CNc1cc(=O)c2ccccc2[nH]1 (centres undefined)
Condition met

API: query returns whether the molecule falls strictly under 20 µg/mL in MIC. Query: O=C(OC(CNCc1ccc(Cl)c(Cl)c1)CNc1cc(=O)c2ccccc2[nH]1)c1ccccc1 (centres undefined)
Condition not met

API: query returns whether the molecule falls strictly under 20 µg/mL in MIC. Query: O=c1cc(NCCCNCc2ccc(Cl)c(Cl)c2)[nH]c2ccccc12
Condition met

API: query returns whether the molecule falls strictly under 20 µg/mL in MIC. Query: O=c1cc(NCC(CNCc2ccc(Cl)c(Cl)c2)OCc2ccccc2)[nH]c2ccccc12 (centres undefined)
Condition met

API: query returns whether the molecule falls strictly under 20 µg/mL in MIC. Query: CCOC(CNCc1ccc(Cl)c(Cl)c1)CNc1cc(=O)c2ccccc2[nH]1 (centres undefined)
Condition met

====

Tested on: Enterococcus faecalis
Assay: Antibacterial activity against Enterococcus faecalis ATCC 19433 after 16 hrs at 36 degC by microdilution method
Type: functional
Details: ATCC 19433, 16 h
Decision: MIC beneath 20 µg/mL gives 1; MIC meeting or exceeding 20 µg/mL gives 0.

- molecule: "O=c1cc(NCCCNCc2ccc(Cl)c(Cl)c2)[nH]c2ccccc12"
  cat: 1
- molecule: "C/C(=C\\C(=O)OCCCCCCCCC(=O)O)C[C@@H]1OC[C@H](C[C@@H]2O[C@H]2[C@@H](C)[C@H](C)O)[C@@H](O)[C@H]1O"
  cat: 1
- molecule: "CC(C)OC(CNCc1ccc(Cl)c(Cl)c1)CNc1cc(=O)c2ccccc2[nH]1 (centres undefined)"
  cat: 1
- molecule: "CCOC(CNCc1ccc(Cl)c(Cl)c1)CNc1cc(=O)c2ccccc2[nH]1 (centres undefined)"
  cat: 1
- molecule: "CN(C)C(CNCc1ccc(Cl)c(Cl)c1)CNc1cc(=O)c2ccccc2[nH]1 (centres undefined)"
  cat: 1
- molecule: "NC(CNCc1ccc(Cl)c(Cl)c1)CNc1cc(=O)c2ccccc2[nH]1 (centres undefined)"
  cat: 0

API: query returns whether the molecule falls strictly under 20 µg/mL in MIC. Query: O=c1cc(NCC(CNCc2ccc(Cl)c(Cl)c2)OCc2ccccc2)[nH]c2ccccc12 (centres undefined)
1

API: query returns whether the molecule falls strictly under 20 µg/mL in MIC. Query: O=c1cc(NCC(CO)CNCc2ccc(Cl)c(Cl)c2)[nH]c2ccccc12 (centres undefined)
1

API: query returns whether the molecule falls strictly under 20 µg/mL in MIC. Query: COCC(CNCc1ccc(Cl)c(Cl)c1)CNc1cc(=O)c2ccccc2[nH]1 (centres undefined)
1

API: query returns whether the molecule falls strictly under 20 µg/mL in MIC. Query: CC(C)(C)OC(=O)NC(CNCc1ccc(Cl)c(Cl)c1)CNc1cc(=O)c2ccccc2[nH]1 (centres undefined)
0

API: query returns whether the molecule falls strictly under 20 µg/mL in MIC. Query: C=CCOC(CNCc1ccc(Cl)c(Cl)c1)CNc1cc(=O)c2ccccc2[nH]1 (centres undefined)
1

API: query returns whether the molecule falls strictly under 20 µg/mL in MIC. Query: O=C(OC(CNCc1ccc(Cl)c(Cl)c1)CNc1cc(=O)c2ccccc2[nH]1)c1ccccc1 (centres undefined)
1

API: query returns whether the molecule falls strictly under 20 µg/mL in MIC. Query: CN(C)C(CNc1cc(=O)c2ccccc2[nH]1)CN(Cc1ccc(Cl)c(Cl)c1)Cc1ccc(Cl)c(Cl)c1 (centres undefined)
0

API: query returns whether the molecule falls strictly under 20 µg/mL in MIC. Query: CC1(C)S[C@@H]2[C@H](NC(=O)[C@H](N)c3ccc(O)cc3)C(=O)N2[C@H]1C(=O)O
0

====

Tested on: Staphylococcus aureus
Test: Antibacterial activity against Staphylococcus aureus ATCC 10537 after 16 hrs at 36 degC by microdilution method
Assay type: functional
Conditions: ATCC 10537, 16 h
Task for the reader: assign each of the following compounds its reported MIC.
Give bare numbers, in µg/mL.

Solved cases below.
- compound: "O=c1cc(NCC(CO)CNCc2ccc(Cl)c(Cl)c2)[nH]c2ccccc12 (centres undefined)"
  value.units: "µg/mL"
  MIC: 32
- compound: "CC1(C)S[C@@H]2[C@H](NC(=O)[C@H](N)c3ccc(O)cc3)C(=O)N2[C@H]1C(=O)O"
  value.units: "µg/mL"
  MIC: 0.125

Value (MIC, Staphylococcus aureus) for record C/C(=C\C(=O)OCCCCCCCCC(=O)O)C[C@@H]1OC[C@H](C[C@@H]2O[C@H]2[C@@H](C)[C@H](C)O)[C@@H](O)[C@H]1O = 0.25

// provenance: ChEMBL document CHEMBL1152839
